The values you see were collected from ChEMBL document CHEMBL1122413.

Kindly state MIC for each of the entries shown.
System: Streptococcus agalactiae
Experiment: Minimum inhibitory concentration against Streptococcus agalactiae
Format: functional

Below: 4 compounds and their reported MIC.
C#CC[C@@H](N)C(=O)N[C@@H](C)C(=O)O.O=C(O)C(F)(F)F ... > 100 µg/mL
C[C@@H](NC(=O)[C@H](N)CCl)C(=O)O.O=C(O)C(F)(F)F ... > 100 µg/mL
C#CCC(NC(=O)[C@H](N)CCl)C(=O)O.O=C(O)C(F)(F)F (stereo not given in full) ... > 100 µg/mL
C[C@H](NC(=O)[C@@H](N)CCl)C(=O)O.O=C(O)C(F)(F)F ... 0.39 µg/mL

Lab note: next compound to report on.
Query: MIC; subject: C#CCC(N)C(=O)N[C@@H](C)C(=O)O.O=C(O)C(F)(F)F (stereo not given in full) > 100 µg/mL
